system-tested: T1, Spy_(29-124) R89D (UniProt P77754 52-147, R89D)
T1 construct: source: E. coli BL21 (DE3), purified (Ni-NTA, cation exchange, SEC); not shown: His6, N-terminal, cleaved; SUMO, N-terminal, cleaved
T1 sequence (looked up): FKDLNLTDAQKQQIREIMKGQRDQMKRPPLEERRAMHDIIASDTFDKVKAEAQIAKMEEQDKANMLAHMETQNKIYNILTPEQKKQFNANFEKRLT
method-notes: BLI; Octet RED96; client biotinylated and loaded on streptavidin sensors; Spy or Spy variant in solution at 0.25, 0.5, 1, 1.5 and 2 μM; 40 mM HEPES, 150 mM NaCl, pH 7.5; Kd calculated as koff/kon
condition-summary: both partners purified
metric: pKd
Friendly reminder that pKd comes from taking -log10 of the concentration in mol/L.

Task: Identify the reported pKd for the following entry. Im7 H40W L53A I54A (natural protein, biotin (EZ-link NHS-biotin, 1:1 molar ratio of biotin to protein), Im7 (colicin E7 immunity protein) with H40W L53A I54A; Spy was made with an N-terminal His6-SUMO tag that was cleaved; also called Im7AAW; partially folded client; source: purified by a similar procedure to Spy) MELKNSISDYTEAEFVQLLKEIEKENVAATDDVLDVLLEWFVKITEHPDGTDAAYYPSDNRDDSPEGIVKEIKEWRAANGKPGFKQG
Result: 5.58
